molecular target: human Claudin 18.2 (CLDN18.2) (human, UniProt P56856-2 1-261); assay: cell-based or functional assay
Listed below: CDC EC50, human serum, CHO-CLDN18.2 values for each entry.
Give the value in nM but do not write nM after it.

# CDC EC50, human serum, CHO-CLDN18.2 (binder: 413H9F8-cp2 (antibody, V domains shown, humanized IgG; constant regions not specified) VH: DVQLVESGGGLVQPGGSLRLSCAASGFTFSSFGMHWVRQAPGKGLEWVAYISSGSSPIYYVDKLKGRFTISRDNAKNSLYLQMNSLRAEDTAVYYCARAGYAVRNALDYWGQGTLVTVSS VL: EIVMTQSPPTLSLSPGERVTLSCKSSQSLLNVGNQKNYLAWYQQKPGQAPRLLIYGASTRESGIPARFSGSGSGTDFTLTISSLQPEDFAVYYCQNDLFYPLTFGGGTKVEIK ) is 1.13

# CDC EC50, human serum, CHO-CLDN18.2 (binder: reference antibody 175D10 (xi175D10) (antibody, human IgG1, kappa, V domains shown, Fc variant D356/L358; also called chimeric 175D10) VH: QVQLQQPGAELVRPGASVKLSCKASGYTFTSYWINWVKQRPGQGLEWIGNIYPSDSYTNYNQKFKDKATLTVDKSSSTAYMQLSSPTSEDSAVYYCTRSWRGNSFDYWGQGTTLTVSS VL: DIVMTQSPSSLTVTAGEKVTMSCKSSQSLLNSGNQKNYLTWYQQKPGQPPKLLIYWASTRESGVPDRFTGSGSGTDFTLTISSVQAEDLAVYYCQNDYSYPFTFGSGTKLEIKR ) is 2.26

# CDC EC50, human serum, CHO-CLDN18.2 (binder: 413H9F8-H1L1 (antibody, V domains shown, humanized IgG; constant regions not specified) VH: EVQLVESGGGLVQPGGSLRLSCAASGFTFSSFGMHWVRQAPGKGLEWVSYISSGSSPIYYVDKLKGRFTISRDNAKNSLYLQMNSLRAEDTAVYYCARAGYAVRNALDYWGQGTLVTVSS VL: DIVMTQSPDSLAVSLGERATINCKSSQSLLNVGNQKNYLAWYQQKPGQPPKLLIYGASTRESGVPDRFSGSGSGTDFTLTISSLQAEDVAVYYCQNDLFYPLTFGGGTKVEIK ) is 0.78
